TESTED_SYSTEM: F508delCFTR (Homo sapiens, UniProt P13569, DEL508-508)
Construct: expressed in transfected cells; host or cells: CFBE41o- human lung-derived epithelial cells (CFBE4lo-F508delCFTR-HRP), doxycycline-inducible
Sequence (P13569 with tags, fused parts or gaps DEL508-508): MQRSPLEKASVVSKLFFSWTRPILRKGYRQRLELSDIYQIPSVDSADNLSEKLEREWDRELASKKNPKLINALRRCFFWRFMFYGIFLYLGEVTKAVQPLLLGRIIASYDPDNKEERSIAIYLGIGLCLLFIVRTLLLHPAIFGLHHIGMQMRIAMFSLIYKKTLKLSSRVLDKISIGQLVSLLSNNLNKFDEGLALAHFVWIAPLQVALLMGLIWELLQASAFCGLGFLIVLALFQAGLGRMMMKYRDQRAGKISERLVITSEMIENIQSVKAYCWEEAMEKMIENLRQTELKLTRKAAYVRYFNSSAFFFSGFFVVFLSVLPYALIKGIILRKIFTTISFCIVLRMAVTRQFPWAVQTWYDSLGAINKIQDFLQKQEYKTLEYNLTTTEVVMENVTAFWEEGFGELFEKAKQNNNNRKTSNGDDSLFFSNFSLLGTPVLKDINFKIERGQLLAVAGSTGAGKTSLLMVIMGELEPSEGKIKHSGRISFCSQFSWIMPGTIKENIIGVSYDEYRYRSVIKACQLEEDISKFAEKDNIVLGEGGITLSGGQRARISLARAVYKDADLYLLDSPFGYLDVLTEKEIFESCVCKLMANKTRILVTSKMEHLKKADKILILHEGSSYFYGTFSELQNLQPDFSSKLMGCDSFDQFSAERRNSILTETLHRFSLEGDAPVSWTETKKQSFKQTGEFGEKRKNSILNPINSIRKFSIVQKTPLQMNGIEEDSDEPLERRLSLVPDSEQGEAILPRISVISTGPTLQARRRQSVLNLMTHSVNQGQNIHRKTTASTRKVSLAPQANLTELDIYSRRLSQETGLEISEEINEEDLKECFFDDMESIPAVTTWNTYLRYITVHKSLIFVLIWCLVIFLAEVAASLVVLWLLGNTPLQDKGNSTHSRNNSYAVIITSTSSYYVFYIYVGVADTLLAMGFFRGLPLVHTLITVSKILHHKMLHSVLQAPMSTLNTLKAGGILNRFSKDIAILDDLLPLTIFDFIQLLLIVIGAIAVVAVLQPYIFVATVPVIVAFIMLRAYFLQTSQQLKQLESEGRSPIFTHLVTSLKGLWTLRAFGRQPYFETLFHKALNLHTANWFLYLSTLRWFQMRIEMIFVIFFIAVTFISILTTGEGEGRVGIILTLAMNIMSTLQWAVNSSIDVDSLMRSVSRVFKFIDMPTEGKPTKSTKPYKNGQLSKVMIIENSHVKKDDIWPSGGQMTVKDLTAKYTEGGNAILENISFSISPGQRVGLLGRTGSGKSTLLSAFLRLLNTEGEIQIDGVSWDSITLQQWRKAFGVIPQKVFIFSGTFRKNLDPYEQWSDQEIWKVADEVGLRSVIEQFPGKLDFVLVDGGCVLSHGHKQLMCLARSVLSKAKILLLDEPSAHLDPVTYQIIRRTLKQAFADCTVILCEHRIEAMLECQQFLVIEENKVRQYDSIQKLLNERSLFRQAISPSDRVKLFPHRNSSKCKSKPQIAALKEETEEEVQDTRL
PROTOCOL_SUMMARY: Cell Surface Expression-Horse Radish Peroxidase (CSE-HRP) Assay
Format: cell-based
CONDITION_SET: with co-corrector (2 μM of 3-[(2R,4R)-4-({[1-(2,2-difluoro-1,3-benzodioxol-5-yl)cyclopropyl]carbonyl}amino)-7-methoxy-3,4-dihydro-2H-chromen-2-yl]benzoic acid); read-out: EC50 (with co-corrector)
Method: Cell Surface Expression-Horse Radish Peroxidase (CSE-HRP) Assay The development was achieved by expressing the F508delCFTR mutation along with a horseradish peroxidase (HRP) in the fourth exofacial loop, and then measuring the HRP activity using luminescence readout from these cells, CFBE4lo-F508delCFTR-HRP, that were incubated overnight with the test corrector compounds, either without or with the co-corrector. […] The raw counts from the experiment were analyzed using Accelrys® Assay Explorer v3.3. […]
pEC50: −log10 of the molar value.
OBSERVED_PROPERTY: pEC50

>  <MOLECULE>
COc1cc2c(cc1CN[C@H]1[C@H](C(C)(C)C)[C@@H](C(=O)O)N(C(=O)OC(C)C)[C@H]1c1cccnc1OC(C)C)CCC2 [II-574]

>  <TESTED_SYSTEM>
F508delCFTR (Homo sapiens, UniProt P13569, DEL508-508)

>  <pEC50>
5.00 to 6.00

$$$$
>  <MOLECULE>
COc1cc(-c2ccccc2)ccc1CN[C@@H]1[C@@H](C(C)(C)C)[C@H](C(=O)O)N(C(=O)OC(C)C)[C@@H]1c1ccccc1 (racemic) [III-92]

>  <TESTED_SYSTEM>
F508delCFTR (Homo sapiens, UniProt P13569, DEL508-508)

>  <pEC50>
< 5.00

$$$$
>  <MOLECULE>
COc1cccc(CN[C@@H]2[C@@H](C(C)(C)C)[C@H](C(=O)O)N(C(=O)C3CCCCC3)[C@@H]2c2ccccc2)c1OC (racemic) [III-13]

>  <TESTED_SYSTEM>
F508delCFTR (Homo sapiens, UniProt P13569, DEL508-508)

>  <pEC50>
< 5.00

$$$$
>  <MOLECULE>
COc1ncc(C(F)(F)F)cc1CN[C@H]1[C@H](C(C)(C)C)[C@@H](C(=O)O)N(C(=O)OC(C)C)[C@H]1c1cccnc1OC [II-512]

>  <TESTED_SYSTEM>
F508delCFTR (Homo sapiens, UniProt P13569, DEL508-508)

>  <pEC50>
5.00 to 6.00

$$$$
>  <MOLECULE>
COc1ccc(C(C)(C)C)cc1CN[C@H]1[C@H](C(C)(C)C)[C@@H](C(=O)O)N(C(=O)CC(C)(O)C(C)C)[C@H]1c1ccccc1 (stereo partly drawn) [II-372]

>  <TESTED_SYSTEM>
F508delCFTR (Homo sapiens, UniProt P13569, DEL508-508)

>  <pEC50>
5.00 to 6.00

$$$$
>  <MOLECULE>
COc1ncc(C(C)(C)C)cc1CN[C@H]1[C@H](C(C)(C)C)[C@@H](C(=O)O)N(C(=O)C2CCCCC2)[C@H]1c1ccccc1 [Example 27]

>  <TESTED_SYSTEM>
F508delCFTR (Homo sapiens, UniProt P13569, DEL508-508)

>  <pEC50>
5.00 to 6.00

$$$$
>  <MOLECULE>
COc1ccc(C(C)(C)C)cc1CN[C@H]1[C@H](C23CC(C2)C3)[C@@H](C(=O)O)N(C(=O)OC(C)C)[C@H]1c1cccnc1N(C)C [Example 71]

>  <TESTED_SYSTEM>
F508delCFTR (Homo sapiens, UniProt P13569, DEL508-508)

>  <pEC50>
5.00 to 6.00

$$$$
>  <MOLECULE>
COc1cnc(C2CCC2)cc1CN[C@H]1[C@H](C(C)(C)C)[C@@H](C(=O)O)N(C(=O)C2CCCCC2)[C@H]1c1ccccc1 [Example I-168]

>  <TESTED_SYSTEM>
F508delCFTR (Homo sapiens, UniProt P13569, DEL508-508)

>  <pEC50>
5.00 to 6.00

$$$$
>  <MOLECULE>
COc1nc(C(C)(C)C)ccc1CN[C@H]1[C@H](C(C)(C)C)[C@@H](C(=O)O)N(C(=O)C2CCC(C)(C)C2)[C@H]1c1ccccc1 (stereo partly drawn) [II-428]

>  <TESTED_SYSTEM>
F508delCFTR (Homo sapiens, UniProt P13569, DEL508-508)

>  <pEC50>
5.00 to 6.00

$$$$
>  <MOLECULE>
O=C(O)[C@H]1[C@H](C2CC2)[C@@H](Nc2cc(C(F)(F)F)ccn2)[C@@H](c2ccccc2)N1C(=O)C1CCCCC1 (racemic) [III-33]

>  <TESTED_SYSTEM>
F508delCFTR (Homo sapiens, UniProt P13569, DEL508-508)

>  <pEC50>
5.00 to 6.00

$$$$

Write down the reported pEC50 (system: F508delCFTR (Homo sapiens, UniProt P13569, DEL508-508)) of COc1ncc(C2CCC2)cc1CN[C@H]1[C@H](C(C)(C)C)[C@@H](C(=O)O)N(C(=O)[C@@H]2CCCCO2)[C@H]1c1ccccc1C(C)C [Example 73] > 6.00

// fetch pEC50 for COc1cccc([C@@H]2[C@H](NCc3cc(C(F)(F)F)ccc3OC)[C@@H](C(C)(C)C)[C@H](C(=O)O)N2C(=O)C2CCCCC2)n1 (racemic) [Example I-19] ; system: F508delCFTR (Homo sapiens, UniProt P13569, DEL508-508) 5.00 to 6.00
